Assay details: qHTS Assay for Lipid Storage Modulators in Drosophila S3 Cells; note: potency is the fitted concentration of half-maximal effect
Condition info: BODIPY lipid droplet fluorescence, 18-24 h, cells fed with added oleic acid; series mostly up to 46.1 µM
In all, about 320,000 compounds went through this assay and about 2,100 (0.66%) were called active. Roughly 53% stayed inconclusive and do not appear here. The sample holds actives, similar compounds and a random draw of the others, so the mix is not that of the screen.
Result type: Potency

Here's what some known entries look like.
[[record]]
molecule = "CCCCn1c(-c2ccc(OC)cc2)nc2c(=O)n(C)c(=O)[nH]c21"
observed_result = "inactive"

[[record]]
molecule = "CC(=O)NCCC(=O)Nc1nc(-c2ccccc2Cl)cs1"
observed_result = "inactive"

[[record]]
molecule = "Cc1nnc(NC(=O)c2sc3nc(-c4cccs4)cc(C(F)(F)F)c3c2N)s1"
observed_result = "9.2 µM (active)"

[[record]]
molecule = "O=C(Nc1ccccc1N1CCCCC1)c1ccc(Cl)cc1"
observed_result = "inactive"


Provide Potency for all items below, preserving their order.
1. CC(=O)NCCC(=O)Nc1nc(-c2c[nH]c3ccccc23)cs1
2. O=S(=O)(NC1CC1)c1ccc(S(=O)(=O)N2CCC3(CC2)OCCO3)cc1
3. CCCNC(=O)c1oc2ccc3c(c2c1C)C(O)CC(C)(C)O3 (stereo unspecified)
4. O=C1/C(=C\c2cccs2)Sc2ccc3ccccc3c21

Outgoing:
14.6 µM (active)
inactive
inactive
16.4 µM (active)

Each of the following entries comes with a recorded value; kindly state Potency for each.
1. Cc1cc(C)c2c(N)c(C(=O)Nc3ccc(C)c(C)c3)sc2n1
2. CCCn1c(-c2ccccc2)nc2c(=O)n(C)c(=O)[nH]c21
3. CN1CCN(c2ccccc2NC(=O)c2ccc(-c3ccc(Cl)c(Cl)c3)o2)CC1

Outgoing:
1: inactive; 2: inactive; 3: inactive

Each recorded value in this set is attributed to PubChem BioAssay AID2685.
